- System Tested: recombinant IRAK-4 kinase (Homo sapiens, UniProt Q9NWZ3)
- Construct: purchased Millipore, USA
- Sequence (Q9NWZ3 1-460): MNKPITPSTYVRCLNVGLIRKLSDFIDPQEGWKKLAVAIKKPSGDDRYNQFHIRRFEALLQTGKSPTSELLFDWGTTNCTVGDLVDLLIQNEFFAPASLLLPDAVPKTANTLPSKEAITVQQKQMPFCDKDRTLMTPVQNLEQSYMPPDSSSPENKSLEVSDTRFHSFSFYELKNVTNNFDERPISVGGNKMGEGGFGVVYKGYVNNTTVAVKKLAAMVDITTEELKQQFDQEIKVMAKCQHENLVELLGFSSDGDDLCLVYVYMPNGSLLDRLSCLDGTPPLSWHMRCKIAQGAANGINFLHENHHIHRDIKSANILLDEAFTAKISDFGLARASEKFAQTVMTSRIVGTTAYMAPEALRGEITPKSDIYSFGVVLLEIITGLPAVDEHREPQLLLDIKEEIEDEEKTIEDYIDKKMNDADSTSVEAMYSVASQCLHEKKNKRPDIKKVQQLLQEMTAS
- Method Description: IRAK-4 Biochemical Assay (TR-FRET, percent inhibition)
- Condition Context: read-out: % inhibition of IRAK-4 @ 1 μM, compound at 1 μM; TR-FRET, 20 μM ATP, 100 nM Biotin Histone H3
Counter-ions that a name gives are not always drawn.
The following molecules are listed with their measured inhibition at 1 µM values.
Quick note: give the figure in %, leave out the unit.

Observe how each entry below is paired with its result.
{"Molecule": "O=C(Nc1cc2sc(N3CCOCC3)nc2nc1N1CCCCC1)c1cncc(N2CC[C@@H](O)C2)n1", "Output Unit": "%", "inhibition at 1 µM": 95}
{"Molecule": "O=C(Nc1cc2sc(N3CCOCC3)nc2nc1N1CCCCC1)c1cccc(N2CC[C@@H](O)C2)n1", "Output Unit": "%", "inhibition at 1 µM": 99}

Lab note: need inhibition at 1 µM with recombinant IRAK-4 kinase (Homo sapiens, UniProt Q9NWZ3) for entry `O=C(Nc1cc2sc(N3CCOCC3)nc2nc1N1CCCCC1)c1cccc(N2CCC(CO)CC2)n1` , please look it up. 95

Lab note: need inhibition at 1 µM with recombinant IRAK-4 kinase (Homo sapiens, UniProt Q9NWZ3) for entry Cc1cc(-c2nc(C(=O)Nc3cc4sc(N5CCN(C(=O)CO)CC5)nc4nc3N3CCCCC3)co2)ccn1 [Example 10, hydrochloride] , please look it up. 100

Lab note: need inhibition at 1 µM with recombinant IRAK-4 kinase (Homo sapiens, UniProt Q9NWZ3) for entry `N[C@H]1CCN(c2cccc(C(=O)Nc3cc4sc(N5CCOCC5)nc4nc3N3CCCCC3)n2)C1` , please look it up. 92

Lab note: need inhibition at 1 µM with recombinant IRAK-4 kinase (Homo sapiens, UniProt Q9NWZ3) for entry `NCC(=O)O[C@H]1CCN(c2nccc(C(=O)Nc3cc4sc(N5CCOCC5)nc4nc3N3CCCCC3)n2)C1` , please look it up. 92

Lab note: need inhibition at 1 µM with recombinant IRAK-4 kinase (Homo sapiens, UniProt Q9NWZ3) for entry `O=C(Nc1cc2sc(N3CCOCC3)nc2nc1C1CC1)c1cnn2ccc(N3CCC[C@H](O)C3)nc12` , please look it up. 99

Lab note: need inhibition at 1 µM with recombinant IRAK-4 kinase (Homo sapiens, UniProt Q9NWZ3) for entry `NCCNc1ccn2ncc(C(=O)Nc3cc4sc(N5CCOCC5)nc4nc3C3CC3)c2n1` , please look it up. 98

Lab note: need inhibition at 1 µM with recombinant IRAK-4 kinase (Homo sapiens, UniProt Q9NWZ3) for entry `C[C@H](O)Cn1cc(-c2cccc(C(=O)Nc3cc4oc(N5CCOCC5)nc4nc3N3CC[C@@H](O)C3)n2)cn1` , please look it up. 60

Lab note: need inhibition at 1 µM with recombinant IRAK-4 kinase (Homo sapiens, UniProt Q9NWZ3) for entry `Cc1cc(-c2nc(C(=O)Nc3cc4oc(N5CCOCC5)nc4nc3N3CC(C)(C)CC3=O)co2)ccn1` , please look it up. 57

Lab note: need inhibition at 1 µM with recombinant IRAK-4 kinase (Homo sapiens, UniProt Q9NWZ3) for entry `O=C(Nc1cc2sc(N3CCOCC3)nc2nc1C1CC1)c1cnn2ccc(N3CCC(O)CC3)nc12` , please look it up. 98

Lab note: need inhibition at 1 µM with recombinant IRAK-4 kinase (Homo sapiens, UniProt Q9NWZ3) for entry `Cc1ccc(C(=O)Nc2cc3sc(N4CCOCC4)nc3nc2N2CCCCC2)nc1-c1ccc(N)nc1` , please look it up. 100

Lab note: need inhibition at 1 µM with recombinant IRAK-4 kinase (Homo sapiens, UniProt Q9NWZ3) for entry `CCOC(=O)O[C@H]1CCN(c2cccc(C(=O)Nc3cc4sc(N5CCOCC5)nc4nc3N3CCCCC3)n2)C1` , please look it up. 96

Lab note: need inhibition at 1 µM with recombinant IRAK-4 kinase (Homo sapiens, UniProt Q9NWZ3) for entry `O=C(Nc1cc2sc(N3CCOCC3)nc2nc1N1CCCCC1)c1ccnc(N2CC[C@H](O)C2)n1` , please look it up. 94

Lab note: need inhibition at 1 µM with recombinant IRAK-4 kinase (Homo sapiens, UniProt Q9NWZ3) for entry `O=C(Nc1cc2sc(N3CCOCC3)nc2nc1N1CCCCC1)c1cccc(N2CCC(CCO)CC2)n1` , please look it up. 95

====

- System Tested: recombinant IRAK-4 kinase (Homo sapiens)
- Construct: purchased Millipore, USA
- Method Description: IRAK-4 Biochemical Assay (TR-FRET, percent inhibition)
- Condition Context: read-out: % inhibition of IRAK-4 @0.1 μM, compound at 0.1 μM; TR-FRET, 20 μM ATP, 100 nM Biotin Histone H3
Where a name gives a salt, the structure may show the parent alone.
Rule: inhibition at 0.1 µM under 90% gives Condition not met, otherwise Condition met.

Solved cases (2 shown):
{"Compound": "Cc1ccc(-c2nc3nc(N4CCOCC4)oc3cc2NC(=O)c2coc(-c3ccnc(C)c3)n2)nc1", "Answer Label": "Condition met"}
{"Compound": "NCc1cn(-c2cccc(C(=O)Nc3cc4sc(N5CCOCC5)nc4nc3N3CCCCC3)n2)cn1 [Example 70, 2,2,2-trifluoroacetate]", "Answer Label": "Condition met"}

hey, is inhibition at 0.1 µM for this one >= 90%? `O=C1CN(c2cccc(C(=O)Nc3cc4sc(N5CCOCC5)nc4nc3N3CCCCC3)n2)CCN1` Condition not met

hey, is inhibition at 0.1 µM for this one >= 90%? O=C(Nc1cc2sc(N3CCOCC3)nc2nc1N1CCCCC1)c1cccc(NC2CCC(CO)CC2)n1 (centres unmarked) Condition not met

hey, is inhibition at 0.1 µM for this one >= 90%? `Cc1cc(-c2nc(C(=O)Nc3cc4oc(N5CCOCC5)nc4nc3N3CC[C@@H](OC(=O)CN)C3)co2)ccn1` Condition not met

hey, is inhibition at 0.1 µM for this one >= 90%? `O=C(Nc1cc2sc(N3CCOCC3)nc2nc1N1CCC[C@@H](O)C1)c1cccc(N2CCCCC2)n1` Condition met

hey, is inhibition at 0.1 µM for this one >= 90%? `Nc1cc(-c2nc(C(=O)Nc3cc4oc(N5CCOCC5)nc4nc3N3CC[C@@H](O)C3)co2)c(Cl)cn1` Condition not met

hey, is inhibition at 0.1 µM for this one >= 90%? Cc1cc(-c2ccc(C(=O)Nc3cc4oc(N5CCOCC5)nc4nc3N3CC[C@@H](O)C3)o2)ccn1 [Example 91, hydrochloride] Condition not met

hey, is inhibition at 0.1 µM for this one >= 90%? `O=C(Nc1cc2sc(N3CCOCC3)nc2nc1N1CCCCC1)c1cccc(N2CCC[C@@H](O)C2)n1` Condition met

hey, is inhibition at 0.1 µM for this one >= 90%? NCC(=O)O[C@H]1CCN(c2cccc(C(=O)Nc3cc4sc(N5CCOCC5)nc4nc3N3CCCCC3)n2)C1 [Example 36, 2,2,2-trifluoroacetate] Condition met

hey, is inhibition at 0.1 µM for this one >= 90%? NC1CCN(c2ccn3ncc(C(=O)Nc4cc5sc(N6CCOCC6)nc5nc4C4CC4)c3n2)C1 (centres unmarked) [Example 23, hydrochloride] Condition not met

hey, is inhibition at 0.1 µM for this one >= 90%? Cc1cc(-c2nc(C(=O)Nc3cc4oc(N5CCOCC5)nc4nc3N3CCCC3=O)co2)ccn1 [Example 89, hydrochloride] Condition not met

hey, is inhibition at 0.1 µM for this one >= 90%? `NCCNc1ccn2ncc(C(=O)Nc3cc4sc(N5CCOCC5)nc4nc3C3CC3)c2n1` Condition met

====

The following compounds are listed with their measured inhibition at 1 µM values.
- System Tested: recombinant IRAK-4 kinase (Homo sapiens, UniProt Q9NWZ3)
- Construct: purchased Millipore, USA
- Method Description: IRAK-4 Biochemical Assay (TR-FRET, percent inhibition)
- Condition Context: read-out: % inhibition of IRAK-4 @ 1 μM, compound at 1 μM; TR-FRET, 20 μM ATP, 100 nM Biotin Histone H3
Quick note: give the figure in %, leave out the unit.

{"Compound": "Nc1cccc(-c2nc(C(=O)Nc3cc4oc(N5CCOCC5)nc4nc3N3CCCCC3)co2)n1 [Example 93]", "Output Unit": "%", "inhibition at 1 µM": 93}

--- query ---
Lab note: need inhibition at 1 µM with recombinant IRAK-4 kinase (Homo sapiens, UniProt Q9NWZ3) for entry O=C(Nc1cc2sc(N3CCOCC3)nc2nc1N1CCCCC1)c1cccc(N2CCCC(O)C2)n1 (stereo not drawn) [Example 55] , please look it up. 98
